Assay: physchem
Format: physicochemical
Details: pH 2.3

# smiles-str, chromatographic logP
records = [
    ("CCc1nc(-c2ccc(F)cc2)c(-c2ccncc2)s1", 2.01),
]

* * *

Assay: physchem
Format: physicochemical
Conditions: pH 2.7
Marks after values point to notes of the source that are not given here.
Listing of recorded log p by entry.

# compound, log p
data = [
    ("CCc1nc(-c2ccc(F)cc2)c(-c2ccnc(C(=O)N(C)CC)c2)s1 [compound 73]", "2.81^[b]"),
    ("CCc1nc(-c2ccc(F)cc2)c(-c2ccnc(NC(=O)c3ccc(F)cc3)c2)s1 [compound 52]", "4.18^[b]"),
    ("CCc1nc(-c2ccc(F)cc2)c(-c2ccnc(NC(=O)OC(C)C)c2)s1 [compound 94]", "4.08^[b]"),
    ("CCc1nc(-c2ccc(F)cc2)c(-c2ccnc(Nc3ccccc3)c2)s1 [compound 60]", "3.1^[b]"),
    ("CCc1nc(-c2ccc(F)cc2)c(-c2ccnc(NC(=O)c3ccc(C)cc3)c2)s1 [compound 50]", "4.48^[b]"),
    ("CCc1nc(-c2ccc(F)cc2)c(-c2ccnc(NC(=O)CCc3ccccc3)c2)s1 [compound 55]", "4.23^[b]"),
    ("Fc1ccc(-c2nc(Cc3ccccc3)sc2-c2ccncc2)cc1 [compound 45]", "2.94^[b]"),
    ("CCc1nc(-c2ccc(F)cc2)c(-c2ccnc(NC(C)COC)c2)s1 (stereo not drawn) [compound 70]", "1.78^[b]"),
    ("Fc1ccc(-c2nc(C3CC3)sc2-c2ccncc2)cc1 [compound 89]", "2.16^[b]"),
]

* * *

Assay: physchem
Format: physicochemical
Details: pH 7.8
Listing of recorded log p by entry.

# molecule, log p
measured = [
    ("CCc1nc(-c2ccc(F)cc2)c(-c2ccnc(N(S(C)(=O)=O)S(C)(=O)=O)c2)s1 [compound 92]", "3.24^[c];"),
    ("CCc1nc(-c2ccc(F)cc2)c(-c2ccnc(NCC(F)F)c2)s1 [compound 79]", "3.76^[c];"),
    ("CCc1nc(-c2ccc(F)cc2)c(-c2ccnc(NC(C)C)c2)s1 [compound 101]", "4.11^[c];"),
    ("CCc1nc(-c2ccc(F)cc2)c(-c2ccnc(C(=O)NC3CC3)c2)s1 [Ex. 75]", "3.5^[c];"),
    ("CCc1nc(-c2ccc(Cl)s2)c(-c2ccncc2)s1 [compound 42]", "3.88^[c];"),
    ("CCc1nc(-c2ccc(F)cc2)c(-c2ccnc(NC(=O)C3CCC3)c2)s1 [compound 84]", "3.82^[c];"),
    ("C#CCN(C(C)=O)c1cc(-c2sc(CC)nc2-c2ccc(F)cc2)ccn1 [compound 102]", "3.02^[c];"),
    ("CCc1nc(-c2ccc(F)cc2)c(-c2ccnc(NC(=O)C3CC3)c2)s1 [compound 86]", "3.37^[c];"),
    ("C=CCNc1cc(-c2sc(CC)nc2-c2ccc(F)cc2)ccn1 [compound 74]", "3.8^[c];"),
    ("CCNc1cc(-c2sc(CC)nc2-c2ccc(F)cc2)ccn1 [compound 76]", "3.64^[c];"),
    ("CCc1nc(-c2ccc(F)cc2)c(-c2ccnc(C(=O)N(C)CC)c2)s1 [compound 73]", "2.87^[c];"),
]
